measured.metric: melting point

Reference set, count: 3
{"columns": ["compound", "measured.metric", "measurement"],
 "data": [
  ["CCC(O)(c1ccc(O)cc1)c1ccc(F)cc1 (stereo not given)", "melting point", "125 to 126 °C"],
  ["CC(=O)SCCS(=O)(=O)N1CCC[C@H]1C(=O)O", "melting point", "63 to 67 °C"],
  ["CN1CCN(c2ccc(-n3c(-c4cc(-c5cnc6[nH]ccc6c5)ccn4)cn(C)c3=O)cc2C(F)(F)F)CC1", "melting point", "241 °C"]
]}

Required: melting point, one value per compound below.
1. CC(=O)Nc1cc(Cc2ccc3c(C(=O)Nc4ccc(CN5CCN(C)CC5)c(C(F)(F)F)c4)cccc3c2)ncn1
2. O=C(NC(Cc1ccccc1)C(=O)O)OCc1ccc(NC(=O)c2ccccc2)cc1 (stereo not given)

result:
1: 202 to 204 °C; 2: 197 to 198 °C

Provide melting point values for the following items, in order.
1. O=CNc1ccc([N+](=O)[O-])cc1
2. O=C1N=C(N2CCCC2)SC1Cc1cccc(-c2ccc(O)c(C34CC5CC(CC(C5)C3)C4)c2)c1 (stereo not given)
3. Cc1c(F)c(F)cc(C(N)=O)c1F
4. CC(=O)N1CCc2cc(N)cnc21
5. COc1cccc2c1CCC2C(=O)O (stereo not given)

result:
1. 195 to 199 °C
2. 153 to 154 °C
3. 105 to 108 °C
4. 193 to 195 °C
5. 117 to 118 °C
